# ASSAY NAME: NCI Yeast Anticancer Drug Screen. Data for the mlh1 rad18 strain (AID 175)
# CONDITION SET: S. cerevisiae mlh1 rad18 strain growth inhibition; at 50.0 µM (retest, dose inferred, filed as 5.0)
The panel holds about 79,000 compounds, 15% with a hit somewhere; the sample as a whole holds those more often. Active and inactive are the calls of the source. Rule as the data show it: active = growth inhibition above about 70%; inactive = the rest.
Please state which outcome applies, choosing from active, inactive

Asked: Entry CCN(CC)CCNC(Cc1ccccc1)c1ccc(OCc2ccccc2)cc1 (stereo unspecified) : call = ?
Given back: active

Asked: Record: CC1(C)CCC[C@]2(C)[C@@H](C=O)C(C=O)=CC[C@@H]12
Given back: active

Asked: Record: O=C1C=CC(=O)N1C1CCCCCCCCCCC1
Given back: inactive

Asked: Record: CCN1CCCC(Nc2cc(C)nc(/N=C(/N)Nc3ccc(Cl)c(Cl)c3)n2)C1 (stereo unspecified)
Given back: active

Asked: Record: NC1=C(Br)C(=O)c2ncccc2C1=O
Given back: active
